The values you see were collected from PubChem BioAssay AID686978.

test: qHTS for Inhibitors of human tyrosyl-DNA phosphodiesterase 1 (TDP1): qHTS in cells in absence of CPT; conditions: DT40 Tdp1-/- hTDP1 cells, no CPT, ATP luminescence, 48 h; further: nearly all actives have a fitted effect of over 55% in size
The campaign covered roughly 420,000 compounds. About 64,000 (15%) were called active. Another 27% or so got no clear call; they are omitted. The call rests on the fitted dose curve; in most records, active means well fitted inhibition curve with a large enough effect; inconclusive means small, poorly fitted or top-dose-only effect; inactive means flat fitted curve, though single readings scatter. The list is a sample of the results.
Pick from class 1 for active, class 0 for inactive when you respond.

In this assay, the call recorded for C[C@@H]1CN([C@H](C)CO)S(=O)(=O)c2ccc(C#C[C@@H](C)O)cc2O[C@@H]1CN(C)Cc1ccc(-c2ccccc2)cc1 was what?
class 1

In this assay, the call recorded for CN1CCN(S(=O)(=O)c2ccc(NC(=O)c3ccco3)cc2)CC1 was what?
class 0

In this assay, the call recorded for O=S(=O)(NC1CCCCC1N1CCC(O)CC1)c1ccc(Cl)cc1 (stereo not given) was what?
class 0

In this assay, the call recorded for COCC(=O)N(C)C[C@H]1Oc2cc(Br)ccc2S(=O)(=O)N([C@H](C)CO)C[C@H]1C was what?
class 0

In this assay, the call recorded for C[C@@H]1CN([C@@H](C)CO)S(=O)(=O)c2ccc(-c3ccc(C(=O)N(C)C)cc3)cc2O[C@@H]1CN(C)Cc1ccccc1C(=O)O was what?
class 0

* * *

test: qHTS for Inhibitors of human tyrosyl-DNA phosphodiesterase 1 (TDP1): qHTS in cells in absence of CPT; settings: DT40 Tdp1-/- hTDP1 cells, no CPT, ATP luminescence, 48 h; further: nearly all actives have a fitted effect of over 55% in size
The whole screen tested about 420,000 compounds, of which about 64,000 (15%) were called active. Roughly 27% stayed inconclusive and do not appear here. Calls come from the whole dose curve; as a rule, active = well fitted inhibition curve with a large enough effect; inconclusive = small, poorly fitted or top-dose-only effect; inactive = flat fitted curve, though single readings scatter. These entries were drawn from the full list.
Pick from label 1 = active, label 0 = inactive when you respond.

In this assay, the call recorded for O=C(N/N=C/c1ccco1)c1ccc(NC(=O)C2CC2)cc1 was what?
label 0

In this assay, the call recorded for CCCCN1C(=O)/C(=C(/C#N)C(N)=O)c2ccccc21 was what?
label 0

In this assay, the call recorded for CCOC(=O)C1CCCN(C(=O)c2ccc(C)c(F)c2)CC1 (stereo not drawn) was what?
label 0

In this assay, the call recorded for COc1cc(OC)cc(-c2nc3ccccc3c(=O)n2NC(=O)c2cccnc2Cl)c1 was what?
label 0

In this assay, the call recorded for COc1ccccc1C(=O)NC(=O)COC(=O)c1ccco1 was what?
label 0

In this assay, the call recorded for O=Cc1ccc(Oc2cccc(C(F)(F)F)c2)nc1 was what?
label 0

In this assay, the call recorded for O=C1NC(c2ccccc2)Cc2ccncc21 (stereo not drawn) was what?
label 0

In this assay, the call recorded for CCCCNC(=O)CCn1c(=S)[nH]c2cc3c(cc2c1=O)OCO3 was what?
label 0

In this assay, the call recorded for O=C(N/N=C/c1ccco1)c1ccc(C(=O)N/N=C/c2ccco2)o1 was what?
label 0

In this assay, the call recorded for COc1cccc(CNC(=O)CN2C(=O)NC(Cc3ccccc3)(c3ccccc3)C2=O)c1 (stereo not drawn) was what?
label 0

In this assay, the call recorded for O=C(N/N=C/c1ccco1)c1csc2c1CCCC2 was what?
label 1

In this assay, the call recorded for COC(=O)[C@@H](Cc1ccccc1)NC(=O)NCCc1ccccc1 was what?
label 0

In this assay, the call recorded for COc1ccccc1NC(=O)c1ccc(N2CC3CC(C2)c2cccc(=O)n2C3)c(NC(=O)c2cccnc2)c1 (stereo not drawn) was what?
label 0

In this assay, the call recorded for COc1cnn(-c2ccc([N+](=O)[O-])cc2)c(=O)c1Cl was what?
label 0

In this assay, the call recorded for CC(=O)NCC(=O)N1CCC(n2nccc2NC(=O)CCCc2ccccc2)CC1 was what?
label 0

In this assay, the call recorded for NC(=O)c1cc(-c2cccnc2)nc2ccc(Br)cc12 was what?
label 0

In this assay, the call recorded for COc1ccc2c(c1)C(=C(C#N)C#N)C(=O)N2CCc1ccccc1 was what?
label 1

In this assay, the call recorded for CC(C)(C)CC(C)(C)NCC(O)COCCOc1ccc(Br)cc1 (stereo not drawn) was what?
label 1

In this assay, the call recorded for CCC(C)OC(=O)C(C)Oc1ccc(-c2ccccc2)cc1 (stereo not drawn) was what?
label 0

In this assay, the call recorded for COCC(=O)Nc1cc(C(=O)OC)cc(C(=O)OC)c1 was what?
label 0

In this assay, the call recorded for CCC(Sc1nncn1C)C(=O)Nc1nnc(-c2ccc(Cl)cc2)s1 (stereo not drawn) was what?
label 0

In this assay, the call recorded for Cc1ccc(C(NC(=O)N2CCCC2)C(Cl)(Cl)Cl)cc1F (stereo not drawn) was what?
label 1

In this assay, the call recorded for NC(=O)CSc1nc2c(oc3ccccc32)c(=O)n1Cc1ccccc1 was what?
label 0

* * *

assay: qHTS for Inhibitors of human tyrosyl-DNA phosphodiesterase 1 (TDP1): qHTS in cells in absence of CPT; details: DT40 Tdp1-/- hTDP1 cells, no CPT, ATP luminescence, 48 h; further: nearly all actives have a fitted effect of over 55% in size; further: potency means the concentration at half of the fitted maximal effect
Screen size: about 420,000 compounds; about 64,000 (15%) were called active. About 27% were inconclusive and are not listed. A selection follows.
ENDPOINT NAME: Potency

{"MOLECULE": "COc1ccccc1C1CC(=O)n2c(nc(-c3ccccc3)c2-c2ccccc2)S1 (stereo unspecified)", "Potency": "inactive"}
{"MOLECULE": "COc1cccc(NC(=O)C2c3cc(OC)c(OC)cc3C(=O)N(C)C2c2cccnc2)c1 (stereo unspecified)", "Potency": "inactive"}
{"MOLECULE": "COc1cccc(NC(=O)CSc2nnc(-c3cccnc3)o2)c1", "Potency": "inactive"}
{"MOLECULE": "Cc1ccn2c(Nc3ccc4c(c3)OCCO4)c(-c3ccc(C)s3)nc2c1", "Potency": "inactive"}
{"MOLECULE": "O=C(CNS(=O)(=O)c1cccc(C(F)(F)F)c1)Nc1ccccc1F", "Potency": "inactive"}

What value of measured Potency is listed for CC(C)NC(=S)Nc1cccc2cnccc12 ?
inactive

What value of measured Potency is listed for CC(=O)Nc1cc(-c2ccccc2F)cn2c(-c3cccc(C(F)(F)F)c3)cnc12 ?
326 nM (active)

What value of measured Potency is listed for C[C@@H]1CN([C@@H](C)CO)C(=O)CCCn2cc(nn2)CO[C@H]1CN(C)S(=O)(=O)c1ccc(-n2cccn2)cc1 ?
inactive

What value of measured Potency is listed for CCCCc1cc2c(s1)CCCC/C2=N/O ?
inactive

What value of measured Potency is listed for CSc1nc2nc(-c3cccc(C(F)(F)F)c3)ccn2n1 ?
inactive

What value of measured Potency is listed for Cc1ccc(-c2ccnc3nc(Sc4ncc(C(F)(F)F)cc4Cl)nn23)cc1 ?
inactive

* * *

experiment: qHTS for Inhibitors of human tyrosyl-DNA phosphodiesterase 1 (TDP1): qHTS in cells in absence of CPT; conditions: DT40 Tdp1-/- hTDP1 cells, no CPT, ATP luminescence, 48 h; further: nearly all actives have a fitted effect of over 55% in size
Among all 420,000 compounds or so, about 64,000 (15%) were called active. Inconclusive results (about 27%) are left out. The call rests on the fitted dose curve; in most records, active means well fitted inhibition curve with a large enough effect; inconclusive means small, poorly fitted or top-dose-only effect; inactive means flat fitted curve, though single readings scatter. Not all results are given here.
Pick from active, inactive when you respond.

In this assay, the call recorded for COc1ccc(-n2nc(C(=O)NCC(=O)N3CCCCCC3)c3ccccc3c2=O)cc1Cl was what?
active

In this assay, the call recorded for COc1ccc(-n2nc(C(=O)NCC(=O)N3CCC(C(N)=O)CC3)c3ccccc3c2=O)cc1OC was what?
inactive

In this assay, the call recorded for CCC(C)(C)c1ccc(Oc2ccc(NC(=O)COC(=O)C3=COCCO3)cc2)cc1 was what?
active

In this assay, the call recorded for Cc1ccc(C(=O)N/N=C/c2sc(=O)n(Cc3cccc(C(=O)O)c3)c2Cl)cc1 was what?
inactive

In this assay, the call recorded for Cc1ccc(C(CNC(=O)Nc2cccc(C)c2)N2CCN(C)CC2)cc1 (stereo not given) was what?
inactive

In this assay, the call recorded for O=S(O)CNc1ccc(S(=O)(=O)c2ccc(NCS(=O)O)cc2)cc1 was what?
inactive

In this assay, the call recorded for O=c1[nH]c2ccccc2s1 was what?
inactive

In this assay, the call recorded for COc1ccc(NC(=O)COC(=O)C2COc3ccccc3O2)cc1 (stereo not given) was what?
inactive

In this assay, the call recorded for COCCNC(=O)C(c1ccc(O)cc1)N(C(=O)CCC(=O)Nc1nccs1)c1ccc(C)cc1 (stereo not given) was what?
inactive

In this assay, the call recorded for CCOC(=O)c1ccccc1NC(=O)c1nn(-c2ccc(OC)c(Cl)c2)c(=O)c2c1c1ccccc1n2C was what?
inactive

* * *

experiment: qHTS for Inhibitors of human tyrosyl-DNA phosphodiesterase 1 (TDP1): qHTS in cells in absence of CPT; conditions: DT40 Tdp1-/- hTDP1 cells, no CPT, ATP luminescence, 48 h; further: nearly all actives have a fitted effect of over 55% in size
Hit rate of the full screen: of about 420,000 compounds, about 64,000 (15%) were called active. Inconclusive results (about 27%) are left out. Calls follow the shape of the dose curve; as a rule, active = well fitted inhibition curve with a large enough effect; inconclusive = small, poorly fitted or top-dose-only effect; inactive = flat fitted curve, though single readings scatter. Only a sample is shown.
Pick from active, inactive when you respond.

In this assay, the call recorded for O=C(O)CC1=C(Nc2ccccc2)C(=O)N(c2ccccc2)C1c1ccc(Cl)cc1 (stereo unspecified) was what?
inactive

In this assay, the call recorded for COC(=O)C1=C(NC(=O)C(C)(C)C)CCS1 was what?
inactive

In this assay, the call recorded for Cc1ccc(S(=O)(=O)c2nc(-c3cccs3)oc2N2CCCCC2)cc1 was what?
active

In this assay, the call recorded for CC(=O)NC1CCN(CC(=O)Nc2nccs2)CC1 was what?
inactive

In this assay, the call recorded for NC(=O)CSc1oc(-c2cccs2)nc1S(=O)(=O)c1ccccc1 was what?
inactive

In this assay, the call recorded for CCOc1ccc2oc(C(=O)N(CC)CC(=O)Nc3ccc(NC(C)=O)cc3)c(C)c2c1 was what?
inactive

In this assay, the call recorded for Cn1c(CCc2ccccc2)nnc1SCC(N)=O was what?
inactive

In this assay, the call recorded for COc1cc2[nH]c(=S)n(Cc3ccc(C)o3)c(=O)c2cc1OC was what?
inactive

In this assay, the call recorded for CCCCS(=O)(=O)c1oc(-c2cccs2)nc1S(=O)(=O)c1ccccc1 was what?
active

In this assay, the call recorded for CCc1ccccc1NC(=O)CSc1nnc(-c2ccncc2)o1 was what?
inactive

In this assay, the call recorded for Cc1ccc(OCCC(=O)Nc2ccc(S(=O)(=O)Nc3nccs3)cc2)cc1 was what?
inactive
